Catalogue of half-life values
- Test: Metabolic stability in human liver microsome assessed as half life
- Type: ADME
- Condition Context: liver microsomes
# number only, unit min dropped from output

COc1cc2c(N)c3c(c(-c4ccc5c(c4)OCO5)c2cc1OC)C(=O)OC3 :: 88.7

The record that follows has no half-life shown yet.
# query: half-life of entry COc1cc2c(O)c3c(c(-c4ccc5c(c4)OCO5)c2cc1OC)C(=O)OC3
43.8

###

- System: MIA PaCa-2
- Test: Antiproliferative activity against human MIA PaCa-2 cells assessed as inhibition of cell proliferation at 1 uM incubated for 72 hrs by SRB assay relative to control
- Type: functional
Experimental Endpoint: inhibition at 1 µM (%)
# number only, unit % dropped from output

Before answering, review these 2 worked examples.
COc1cc2c(OCCCc3cn([C@H]4O[C@@H](C)[C@H](O)[C@@H](O)[C@H]4O)nn3)c3c(c(-c4ccc5c(c4)OCO5)c2cc1OC)C(=O)OC3 :: 46.5
COc1cc2c(OCCOCc3cn([C@H]4O[C@@H](C)[C@H](O)[C@@H](O)[C@H]4O)nn3)c3c(c(-c4ccc5c(c4)OCO5)c2cc1OC)C(=O)OC3 :: 0.16

# query: inhibition at 1 µM of entry COc1cc2c(N)c3c(c(-c4ccc5c(c4)OCO5)c2cc1OC)C(=O)OC3
91

###

Catalogue of IC50 at 72 h values
- Test: Antiproliferative activity against human L02 cells assessed as inhibition of cell proliferation incubated for 72 hrs by SRB assay
- Format: toxicity, cell-based
# number only, unit µM dropped from output

COc1cc2c(NC(=O)OC(C)(C)C)c3c(c(-c4ccc5c(c4)OCO5)c2cc1OC)C(=O)OC3 :: 5.12
COc1cc2c(N)c3c(c(-c4ccc5c(c4)OCO5)c2cc1OC)C(=O)OC3 :: 0.487
COc1cc2c(OCCOCc3cn([C@H]4O[C@@H](C)[C@H](OC(C)=O)[C@@H](OC(C)=O)[C@H]4OC(C)=O)nn3)c3c(c(-c4ccc5c(c4)OCO5)c2cc1OC)C(=O)OC3 :: 1.04

The record that follows has no IC50 at 72 h shown yet.
# query: IC50 at 72 h of entry COc1cc2c(O)c3c(c(-c4ccc5c(c4)OCO5)c2cc1OC)C(=O)OC3
3.32
